src = PubChem BioAssay (NCI)

system: MDA-MB-231 breast; assay: NCI tumour cell line growth inhibition, 48 h; in the data active means GI50 below about 0.43 µM; inactive means the rest
Output constraint: value belongs to t = active, f = inactive

Req: In this assay, the call recorded for `c1ccc(-c2nnc(-c3ccccn3)s2)nc1` was what?
Resp: f

Req: // query: CC(=O)OC1COC(Oc2c(C)c3c4c(c2O)[C@@H](C)CC[C@@H]4[C@@H](C)C[C@H]3C=C(C)C)C(O)C1OC(C)=O (some centres not stated)
Resp: f

Req: // query: COc1cccc2c1C(=O)c1c(O)c3c(c(O)c1C2=O)C[C@@](O)(C(=O)CO)C[C@@H]3OC1CC(N)CC(C)O1 (some centres not stated)
Resp: t

Req: // query: `CCOC(=O)C1=CN(C)C=C(C(=O)OCC)C1c1cc(Br)c(OCC)c(OC)c1`
Resp: f

Req: // query: `CC[As](CC)SC[C@H](C)C(=O)N1CCC[C@H]1C(=O)O`
Resp: t

Req: // query: CCN1CCN(C(=O)[C@@]2(C)CC[C@]3(C)CC[C@]4(C)C(=CC(=O)[C@@H]5[C@@]6(C)CC[C@H](OC7C[C@@H](O)[C@@H](O)C(C)O7)C(C)(C)[C@@H]6CC[C@]54C)[C@@H]3C2)CC1 (some centres not stated)
Resp: f

Req: // query: `CN1CCN(C2CCN(C(=O)Nc3cc(Oc4ccc(NC(=O)C5(C(=O)Nc6ccc(F)cc6)CC5)c(F)c4)ccn3)CC2)CC1`
Resp: f

Req: // query: `NC(N)=N/N=C/c1c(-c2ccsc2)nc2sccn12`
Resp: f

Req: // query: `Cn1c(I)c(C#CCO[Si](C)(C)C(C)(C)C)c(=O)[nH]c1=O`
Resp: f

Req: // query: `N#Cc1c(N)nc(N2CCOCC2)c(C#N)c1-c1ccncc1`
Resp: f

Req: // query: `Oc1ccc(Nc2ncnc3c2sc2ncccc23)cc1`
Resp: f

Req: // query: `CNCc1ccccc1-c1csc([C@@H](C)Nc2nc(C)nc3cc(OC)c(OC)cc23)c1`
Resp: f

----------
Please go through the items and note down their TGI.
system: CAKI-1 renal; test: NCI tumour cell line growth inhibition, 48 h

Req: Give its TGI value. Item: C=CCc1c(O)c2c(c3oc(=O)cc(C)c13)CC(C)O2 (stereo not drawn)
Resp: > 100 µM

Req: // query: `COc1ccccc1/C=N\N/C(N)=N\N=C\c1ccccc1OC`
Resp: 4.11 µM

Req: // query: `C=CCc1cccc2cc(C(=O)NCc3ccccc3)c(=N)oc12`
Resp: > 100 µM

Req: // query: O=C(Nc1ccccc1)c1cc(S(=O)(=O)NC2=NC(c3ccccc3)c3cc(Cl)ccc3N2)c(SSc2cc(Cl)c(C(=O)Nc3ccccc3)cc2S(=O)(=O)NC2=NC(c3ccccc3)c3cc(Cl)ccc3N2)cc1Cl (stereo not drawn)
Resp: > 100 µM

Req: // query: `O=C(O)c1nnsc1-c1ccc(-c2snnc2C(=O)O)cc1`
Resp: > 100 µM

Req: // query: `Cc1[nH]c(=O)nc2nc3ccc(Cl)cc3c(NCCNCCO)c12`
Resp: 25.4 µM

Req: // query: `C/C=C/C(CC(O)(C(F)(F)F)C(F)(F)F)=N/NC(N)=S`
Resp: > 10 µM

Req: // query: `O=P(O)(O)CCP(=O)(O)O`
Resp: > 100 µM

----------
test system: SK-MEL-5 melanoma; test: NCI tumour cell line growth inhibition, 48 h
Please go through the items and note down their TGI.

Req: Give its TGI value. Item: `O=S(=O)(O)CCCc1cccc2ccccc12`
Resp: > 100 µM

Req: // query: `Cc1cc(Cl)cc(OCCn2cc(F)cn2)c1-c1nc(N)nc2c1CN(C(=O)NCC(C)(F)F)C2`
Resp: > 100 µM

Req: // query: COc1cc(C2c3cc4c(cc3OC(N3CCCCC3)C2C)OCO4)cc(OC)c1O (configuration not stated)
Resp: 19.8 µM

Req: // query: `Cc1ccc(/C=N/Nc2cc(C)c3cccc(C)c3n2)s1`
Resp: 23.9 µM

Req: // query: O=C(Nc1ccccc1)c1cc(S(=O)(=O)NC2=NC(c3ccccc3)c3cc(Cl)ccc3N2)c(SSc2cc(Cl)c(C(=O)Nc3ccccc3)cc2S(=O)(=O)NC2=NC(c3ccccc3)c3cc(Cl)ccc3N2)cc1Cl (configuration not stated)
Resp: > 100 µM

Req: // query: CCN(CC)CCC(CNc1ccnc2cc(Cl)ccc12)c1ccc(Cl)cc1 (configuration not stated)
Resp: 2.34 µM

Req: // query: CCCCCCCCCCCCCC(=O)OCC(C[As](=O)(O)O)OC(=O)CCCCCCCCCCCCC (configuration not stated)
Resp: > 100 µM

Req: // query: `COC(=O)COc1ccccc1/C=C1\N=C(c2ccccc2)N(c2cc(C(F)(F)F)ccc2Cl)C1=O`
Resp: > 100 µM

Req: // query: `O=C1COc2cccnc2N1CCCCO`
Resp: > 100 µM

Req: // query: `Cc1ccc(-n2cnc(C(=N)C#N)c2N)cc1`
Resp: > 100 µM

Req: // query: `COc1cc(Nc2ncccc2C(=O)NCc2cn(Cc3cccc(Oc4ccccc4)c3)nn2)cc(OC)c1`
Resp: > 100 µM

Req: // query: `N#CN/C(N)=N/CO`
Resp: > 100 µM

Req: // query: COc1cccc(C2c3cc4c(cc3OC(N3CCCCC3)C2C)OCO4)c1O (configuration not stated)
Resp: 16.3 µM

Req: // query: `COc1cc(OC)cc(Oc2nc3ccccc3nc2C(F)(F)F)c1`
Resp: > 100 µM

Req: // query: `Cc1ccnc2[nH]c(-c3ccc4ccccc4c3)cc(=O)c12`
Resp: 12.7 µM

Req: // query: `N#Cc1c(NC(=O)NCc2ccccc2)sc2c1CCCCC2`
Resp: 3.6 µM

Req: // query: `O=[N+]([O-])c1ccc(CN(CCCl)OCCCl)cc1`
Resp: > 100 µM

Req: // query: `Cc1ccc(S(=O)(=O)N(C=O)N=C2CCN(Cc3ccccc3)CC2)cc1`
Resp: > 100 µM

Req: // query: `CCOC(=O)C1=CN(C)C=C(C(=O)OCC)C1c1cc(Br)c(OCC)c(OC)c1`
Resp: > 100 µM

Req: // query: `BrC1=C(Br)C2(SCCS2)[C@H]2C[C@@H]1c1ccccc12`
Resp: > 41.6 µM

Req: // query: `CCOC(=O)c1ccc(NC(=O)Oc2ccc3c(C)cc(=O)oc3c2)cc1`
Resp: 29.1 µM

Req: // query: O=C(O)C(O)C(O)C(O)C(O)c1nc2ccccc2s1 (configuration not stated)
Resp: 74.1 µM

----------
tested on: HL-60(TB) leukemia; assay: NCI tumour cell line growth inhibition, 48 h
Please go through the items and note down their GI50.

Req: Give its GI50 value. Item: `Cc1cc(Nc2ccc(NC(=O)c3ccc(Nc4ccnc5ccccc45)cc3)cc2)nc(N)n1`
Resp: 7.31 µM

Req: // query: `CC/C=C\C[C@H](O)C/C=C1/C(=O)C(Cl)=C[C@@H]1C/C=C\CCCC(=O)OC`
Resp: 0.453 µM

Req: // query: `CN1CCN(C2CCN(C(=O)Nc3cc(Oc4ccc(NC(=O)C5(C(=O)Nc6ccc(F)cc6)CC5)c(F)c4)ccn3)CC2)CC1`
Resp: 1.39 µM

Req: // query: `NC(=S)N/N=C/C(=O)O`
Resp: > 100 µM

Req: // query: `N.N.N.N.O=C([O-])CCl.O=C([O-])CCl.[Co+3].[O-][Cl+3]([O-])([O-])[O-]`
Resp: > 100 µM

Req: // query: `COc1cccc(F)c1C(=O)c1cnc(NC2CCN(S(C)(=O)=O)CC2)nc1N`
Resp: 1.44 µM

Req: // query: CC(=O)Nc1ccc(S(=O)(=O)N2C(=O)CCC2C(=O)Nc2ccc(Br)cc2)cc1 (centres undefined)
Resp: 3.1 µM

Req: // query: `COc1ccc(Sc2[nH]c(C(C)=O)c3ccccc23)cc1`
Resp: 15 µM

Req: // query: `COC(=O)COc1ccccc1/C=C1\N=C(c2ccccc2)N(c2cc(C(F)(F)F)ccc2Cl)C1=O`
Resp: 31.1 µM

----------
system: HOP-92 NSCLC; experiment: NCI tumour cell line growth inhibition, 48 h
Please go through the items and note down their GI50.

Req: Give its GI50 value. Item: `COc1cc(-c2oc(=O)ccc2C#Cc2ccccn2)cc(OC)c1OC`
Resp: 2230 nM

Req: // query: `CCCCOC(=O)CNC(=O)OC/C=C/C#CC#C/C=C/COC(=O)NCC(=O)OCCCC`
Resp: > 100000 nM

Req: // query: `Cn1cc(C2=C(c3ccc(N)cc3)C(=O)NC2=O)c2ccccc21`
Resp: > 25000 nM

Req: // query: `N#Cc1c(N)nc(N2CCOCC2)c(C#N)c1-c1ccncc1`
Resp: 31700 nM

Req: // query: `N#Cc1c(NC(=O)NCc2ccccc2)sc2c1CCCCC2`
Resp: 547 nM

Req: // query: `Cc1cc(Nc2ccc(NC(=O)c3ccc(Nc4ccnc5ccccc45)cc3)cc2)nc(N)n1`
Resp: 2130 nM
